Consider the following compounds and their measured TGI readings.
Tested on: IGROV1 ovarian
Experiment: NCI tumour cell line growth inhibition, 48 h

compound	TGI
Cc1c2c(nn1-c1ccc(S/N=C3\SCC(=O)CN3Cc3ccccc3)cc1)-c1ccccc1CC2	> 100 µM
CC(NC(=O)OC(C)(C)C)C(=O)NC(Cc1ccccc1)C(=O)NCC(=O)ON=C1CCCC1 (stereo not given)	> 100 µM
COc1ccc(C2SC(N)=Nc3c2c(C)nn3C(=O)c2ccccc2O)cc1 (stereo not given)	> 10 µM
OC/C=C/[C@H](OCc1ccccc1)[C@H](/C=C/CO)OCc1ccccc1	> 100 µM
CN(C)c1nc(N)nc(CCl)n1	35 µM

---

Tested on: MDA-MB-435
Assay: NCI tumour cell line growth inhibition, 48 h

compound	tested_on	measure_unit	value_modifier	TGI
COC(=O)c1cc2/c(=N/O)c3ccccc3sc2o1	MDA-MB-435	µM	>	100
O=C(NCCCN1CCC(N2CCCCC2)CC1)C1=Cc2cc(Br)ccc2OC1	MDA-MB-435	µM	=	3.55
O=C(OCc1nc2nc(Cl)nc(N3CCOCC3)c2[nH]1)n1ccnc1	MDA-MB-435	µM	=	2.75
CC(=O)OCC1OC(n2c3c(cc(C#N)c2=O)CCCCCC3)C(OC(C)=O)C(OC(C)=O)C1OC(C)=O (stereo not given)	MDA-MB-435	µM	>	100
O=C(CC(=O)N1N=C(N2c3ccccc3Sc3ccccc32)CC1c1ccccc1)Nc1ccccc1Cl (stereo not given)	MDA-MB-435	µM	>	100
C=C1c2nc3ccccc3n2C=C(c2ccc(OC)cc2)N1c1ccccc1	MDA-MB-435	µM	=	4.83
COc1cc(C2S/C(=C/c3ccccc3)C(=O)N2c2cccc(Cl)c2)cc(OC)c1OC (stereo not given)	MDA-MB-435	µM	=	57.8
O=[N+]([O-])c1ccccc1N=Nc1c(O)[nH]c2ccc(S(=O)(=O)O)cc12	MDA-MB-435	µM	>	100
O=c1oc2ccc(Br)cc2c(=O)n1-c1ccc(Br)cc1F	MDA-MB-435	µM	=	8.87
CCN(CC)c1ccc(/C=N/NC(=O)c2ccc(S(C)(=O)=O)cc2)c(O)c1	MDA-MB-435	µM	>	100
CCOC(=O)c1c(SC(=O)C(C)(C)Oc2ccc(Cl)cc2)n(-c2ccccc2)c(=S)n(-c2ccccc2)c1=O	MDA-MB-435	µM	>	100
O=C1C(N2CCOCC2)=C(Cl)C(=O)c2ncccc21	MDA-MB-435	µM	=	3.22
CC(C)(C)OC(=O)NC(Cc1ccc(OCc2ccccc2)cn1)C(=O)N1CCCC1 (stereo not given)	MDA-MB-435	µM	>	100
COc1ccc(-c2c(C#N)c(=O)nc(SC)n2C2OCC(OC(C)=O)C(OC(C)=O)C2OC(C)=O)cc1 (stereo not given)	MDA-MB-435	µM	>	100
C=CCN1CN(C2CCCCC2)CSC1=S	MDA-MB-435	µM	=	12.2
COc1ccc(C2C(C#N)=C(N)Oc3c2sc2c(F)cccc32)cc1 (stereo not given)	MDA-MB-435	µM	=	1.4
COc1cc(/C=C2\C[C@H]3[C@@H]4CC=C5C[C@@H](OC(C)=O)CC[C@]5(C)[C@H]4CC[C@]3(C)\C2=N\O)cc(OC)c1OC	MDA-MB-435	µM	>	91.3
Clc1ccc(Nc2nnc(CNc3ccccc3)c3ccccc23)cc1	MDA-MB-435	µM	=	7.88
C/C(=C1\SC(=NCc2cccs2)NC1=O)c1ccc2ncccc2c1	MDA-MB-435	µM	>	25
CC(C)(C)C(=O)C(C(=O)c1ccccc1)C(=O)C(C)(C)C	MDA-MB-435	µM	>	100

# credit: PubChem BioAssay (NCI)
